experiment: Cell Viability - LYMP2-022 (AID 987); details: LYMP2-022 lymphoblastoid cell viability; series mostly up to 92.2 µM;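 further: cells exposed to compound for 24 hr; nearly all actives have a fitted effect of over 55% in size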
Records with an inconclusive call do not appear. Calls of active or inactive are those of the source. The call rests on the fitted dose curve; in most records, active means well fitted cell-killing curve with a large enough effect; inconclusive means small, poorly fitted or top-dose-only effect; inactive means flat fitted curve, though single readings scatter.
Classes used: active, inactive

>  <COMPOUND>
CC1=C(/C=C/C(C)=C/C=C/C(C)=C/C=O)C(C)(C)CCC1

>  <CATEGORY_LABEL>
active

$$$$
>  <COMPOUND>
Cc1ccc(S(N)(=O)=O)cc1

>  <CATEGORY_LABEL>
inactive

$$$$
>  <COMPOUND>
c1ccc(CSCc2ccccc2)cc1

>  <CATEGORY_LABEL>
inactive

$$$$
>  <COMPOUND>
c1ccc(Nc2cccc3ccccc23)cc1

>  <CATEGORY_LABEL>
inactive

$$$$
>  <COMPOUND>
CC(CCC(=O)O)(c1ccc(O)cc1)c1ccc(O)cc1

>  <CATEGORY_LABEL>
inactive

$$$$
>  <COMPOUND>
O=C(OCc1ccccc1)c1ccccc1O

>  <CATEGORY_LABEL>
inactive

$$$$
>  <COMPOUND>
Cc1c2ccccc2c(C)c2c1ccc1ccccc12

>  <CATEGORY_LABEL>
inactive

$$$$
>  <COMPOUND>
CCOC(=O)C1OC1c1ccccc1 (stereo unspecified)

>  <CATEGORY_LABEL>
inactive

$$$$
>  <COMPOUND>
c1ccc(SCCSc2ccccc2)cc1

>  <CATEGORY_LABEL>
inactive

$$$$
>  <COMPOUND>
S=C(NC1CCCCC1)NC1CCCCC1

>  <CATEGORY_LABEL>
inactive

$$$$
>  <COMPOUND>
CCCCC(CC)COCCCN (stereo unspecified)

>  <CATEGORY_LABEL>
inactive

$$$$
>  <COMPOUND>
CCCCC(CC)COP(=O)(OCC(CC)CCCC)OCC(CC)CCCC (stereo unspecified)

>  <CATEGORY_LABEL>
inactive

$$$$
>  <COMPOUND>
Cc1cc(=O)oc2cc(O)cc(O)c12

>  <CATEGORY_LABEL>
inactive

$$$$
>  <COMPOUND>
Brc1ccc(-c2ccccc2)cc1

>  <CATEGORY_LABEL>
inactive

$$$$
>  <COMPOUND>
CCc1ccc(C(c2ccc(CC)cc2)C(Cl)Cl)cc1

>  <CATEGORY_LABEL>
inactive

$$$$
>  <COMPOUND>
Cc1ccc(O)c(N)c1

>  <CATEGORY_LABEL>
active

$$$$
>  <COMPOUND>
Nc1cc(C(=O)O)c(O)c(S(=O)(=O)O)c1

>  <CATEGORY_LABEL>
inactive

$$$$
>  <COMPOUND>
OC1CCCCC1

>  <CATEGORY_LABEL>
inactive

$$$$
>  <COMPOUND>
Brc1cc(Oc2cc(Br)c(Br)c(Br)c2Br)c(Br)c(Br)c1Br

>  <CATEGORY_LABEL>
inactive

$$$$
>  <COMPOUND>
Oc1ccc(O)c2c(O)cccc12

>  <CATEGORY_LABEL>
active

$$$$
>  <COMPOUND>
C=CC(=O)OCCCCCCOC(=O)C=C

>  <CATEGORY_LABEL>
active

$$$$
>  <COMPOUND>
Nc1ccc(N=Nc2ccccc2)c(N)c1

>  <CATEGORY_LABEL>
inactive

$$$$
>  <COMPOUND>
O=[N+]([O-])c1ccccc1Nc1ccccc1

>  <CATEGORY_LABEL>
inactive

$$$$
>  <COMPOUND>
CCCCCCc1ccc(-c2ccc(C#N)cc2)cc1

>  <CATEGORY_LABEL>
inactive

$$$$
>  <COMPOUND>
CCCCCCCCOc1ccc(C(=O)O)cc1

>  <CATEGORY_LABEL>
inactive

$$$$
>  <COMPOUND>
C1CCCNCC1

>  <CATEGORY_LABEL>
inactive

$$$$
>  <COMPOUND>
O=C(O)c1ccc([N+](=O)[O-])cc1

>  <CATEGORY_LABEL>
inactive

$$$$
>  <COMPOUND>
CCOc1ccc2nc(N)sc2c1

>  <CATEGORY_LABEL>
inactive

$$$$
>  <COMPOUND>
Cc1ccc2ccc3cccc4ccc1c2c34

>  <CATEGORY_LABEL>
inactive

$$$$
>  <COMPOUND>
Cc1c(N)cccc1Cl

>  <CATEGORY_LABEL>
inactive

$$$$
>  <COMPOUND>
C=Cc1cccc(C)c1

>  <CATEGORY_LABEL>
inactive

$$$$
